Test: CMV-Luciferase Counterscreen for Inhibitors of ATXN expression; note: nearly all actives have a fitted effect of over 55% in size; note: potency is the fitted concentration of half-maximal effect
Conditions: HEK-293 CMV-luciferase reporter, luminescence, 24 h; series mostly up to 57.5 µM
Out of some 2,100 compounds screened, about 670 (32%) were called active. Another 50% or so got no clear call; they are omitted. The list shows a part of the results.
Reported property: Potency

Cc1ccnc(N2C(=O)c3cccc4c([N+](=O)[O-])ccc(c34)C2=O)c1 ... 12.6 µM (active)
N#Cc1nc(COc2ccc(-c3ccccc3)cc2)oc1NCc1cccnc1 ... 3.55 µM (active)
COc1ccc(-c2csc(NC(=O)C3CCN(c4ncnc5sc(C)c(C)c45)CC3)n2)cc1OC ... 3.55 µM (active)
O=C1c2cc(Cl)ccc2-c2c(O)cc(Cl)cc21 ... inactive
COc1ccc(S(=O)(=O)N(C)C)cc1NC(=O)C1CCN(c2ncnc3sc(C)c(C)c23)CC1 ... 10 µM (active)

Consider the compound shown here: CCCCC(=O)NC(c1ccccc1Cl)c1ccc2cccnc2c1O (stereo not drawn) What is its recorded Potency?
2.51 µM (active)

Suppose we examine the compound Cn1c(CO)cnc1S(=O)(=O)Cc1ccc([N+](=O)[O-])cc1 ; what Potency value has been reported?
inactive

Item O=C(NNC1=Nc2ccccc2SC1)c1ccc(Cl)cc1 has what recorded Potency?
1.78 µM (active)

Quick check: Potency of O=C(CCC(=O)Nc1ccc(Br)cc1)N/N=C/c1ccccc1O ?
1.26 µM (active)

I am curious: what Potency value has been reported for Cc1ccc(C(=O)O)cc1N1C(=O)c2cccc3c([N+](=O)[O-])ccc(c23)C1=O ?
inactive

Tell me the measured Potency of COc1ccc(CSCC(=O)N/N=C/c2ccccc2O)cc1 , please.
25.1 µM (active)

Fill in the blank: the reported Potency of C(=NN1CCCCCC1)c1ccc2ccccc2n1 is ____.
15.8 µM (active)

Please give the measured Potency for this compound: COc1cccc(-c2cc3nc(-c4ccccc4)cc(N4CCN(C(=O)c5ccoc5)CC4)n3n2)c1
3.16 µM (active)

Return reported Potency; argument: Cc1nc(N2CCN(c3ccccn3)CC2)c2c(C)c(C(=O)N3CCN(c4ccc(F)cc4)CC3)sc2n1
14.1 µM (active)

Please look up its Potency: CC(C)(C)c1ccc(C(=O)N2CCCCCC2=O)cc1
5.01 µM (active)

I have this compound here, COCCCn1c(-c2ccc(S(=O)(=O)N3CCOCC3)cc2)csc1=Nc1ccccc1 , and I need its recorded Potency.
3.98 µM (active)

Give the measured Potency of Cc1cc(C)c2nc(N(CCCN(C)C)C(=O)c3ccc4c(c3)OCCO4)sc2c1 .
28.2 µM (active)

// lookup Potency for CCOC(=O)c1c(NC(=O)COC(=O)Cn2cnc3ccccc32)sc(C)c1C
inactive

Reported Potency, compound COC(=O)C1=C(C)N(Cc2ccccc2)C(=NCCc2cccnc2)N[C@H]1c1ccc(Br)cc1 : ____
28.2 µM (active)

Value lookup for Potency; key = CCCCC(=O)N(CCOC)c1nnc(-c2ccccc2C)s1
inactive

Quick check: Potency of Nc1nc(NCCc2ccccc2)nc(NCc2ccccc2)c1[N+](=O)[O-] ?
inactive

====

Assay: CMV-Luciferase Counterscreen for Inhibitors of ATXN expression; note: nearly all actives have a fitted effect of over 55% in size
Conditions: HEK-293 CMV-luciferase reporter, luminescence, 24 h; series mostly up to 57.5 µM
In all, about 2,100 compounds went through this assay and about 670 (32%) were called active. Not shown: some 50% with an inconclusive outcome. Calls come from the whole dose curve; as a rule, active = well fitted inhibition curve with a large enough effect; inconclusive = small, poorly fitted or top-dose-only effect; inactive = no such curve, though single readings can be large or run the other way. The list shows a part of the results.
Choose the fitting class; nothing outside 1.0 = active, 0.0 = inactive is accepted.

Assay result, entry C=CCOC(=O)C1=C[C@@H](c2ccc3c(c2)OCO3)C[C@@H](OCCCCO)O1 — outcome?
0.0

What did the test return for OCCN1CCN(C(=S)c2ccc(-c3ccccc3)cc2)CC1 ?
1.0

So what was the verdict on CCOC(=O)Oc1c(OC)cc(C(=O)O[C@@H]2C[C@@H]3CN4CCc5c([nH]c6cc(OC)ccc56)[C@H]4C[C@@H]3[C@H](C(=O)OC)[C@H]2OC)cc1OC in this test?
1.0

Dear colleague, could you share the recorded outcome for CCOc1ccc(-n2c(-c3ccccc3)c[n+]3c2CCCCC3)cc1 when you have a moment?
1.0

Please indicate how the test categorized O=C(NN=Cc1ccc(O)cc1O)c1ccccc1NS(=O)(=O)c1cccs1 .
1.0

Recorded test outcome, item CC(=O)N/N=C/c1cc(C(C)(C)C)cc(/C=N/NC(C)=O)c1O
1.0

Please let me know the test result on file for Cc1ccc(NC(=O)c2cnc(N3CCN(c4ccccn4)CC3)c3ccccc23)c(Br)c1 .
1.0

What call does the record list for Cc1cc(C)c(O)c(CN(C)Cc2cc(Cl)cc(Cl)c2O)c1 ?
1.0

Kindly provide the recorded test outcome for the following compound: O=C(c1cnc(N2CCN(c3ccccn3)CC2)c2ccccc12)N1CCN(c2cccc(Cl)c2)CC1
1.0
